system: human CD33 on primary human dendritic cells (human, UniProt P20138 18-364)
Sequence (P20138 18-364): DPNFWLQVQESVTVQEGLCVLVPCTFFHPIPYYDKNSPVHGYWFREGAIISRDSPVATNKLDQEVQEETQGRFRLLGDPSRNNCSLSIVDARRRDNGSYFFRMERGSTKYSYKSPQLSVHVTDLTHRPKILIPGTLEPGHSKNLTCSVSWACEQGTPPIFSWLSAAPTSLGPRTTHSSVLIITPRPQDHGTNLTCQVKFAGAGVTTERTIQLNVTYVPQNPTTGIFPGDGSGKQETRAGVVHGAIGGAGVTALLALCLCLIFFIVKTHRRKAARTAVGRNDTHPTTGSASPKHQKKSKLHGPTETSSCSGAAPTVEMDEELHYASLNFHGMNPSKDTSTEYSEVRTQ
protocol-text: cell-based or functional assay
Overview of reported Fold increase in potency compared to 6C7H5 across a group of binders:
Value expressed in fold; do not type the unit.

Before answering, review these 2 worked examples.
| binder | unit-text | numeric-result |
| --- | --- | --- |
| anti-CD33 antibody 6C7H50 (antibody, V domains shown, VH/VL only) VH: EVQLVESGGGLVQPGGSLRLSCAASGFTFSEYDMLWVRQAPGKGLEWVGEIRLKSNNYVTNYAASVKGRFTISRDDSKNSVYLQMNSLKTEDTGVYYCTRAGYYVPFAYWGQGTLVTVSS VL: QLMLTQSPSASASLGASVKLTCTLSSQHSTYTIEWYQQQPGKGPRYLMELKKEGSHSTGDGIPDRFSGSSSGAERYLTISSLQSEDEADYYCGVGHTIKEQFVYVFGGGTKLTVL | fold | 0.7 |
| anti-CD33 antibody 6C7H52 (antibody, V domains shown, VH/VL only) VH: EVQLVESGGGLVQPGGSLRLSCAASGFTFSEYAMLWVRQAPGKGLEWVGEIRLKSNNYVTNYAASVKGRFTISRDDSKNSVYLQMNSLKTEDTGVYYCTRAGYYVPFAYWGQGTLVTVSS VL: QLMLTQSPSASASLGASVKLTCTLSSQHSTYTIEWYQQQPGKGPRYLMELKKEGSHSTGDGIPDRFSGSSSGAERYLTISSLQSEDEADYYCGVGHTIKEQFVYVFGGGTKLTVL | fold | 0.9 |

Consider the additional binder presented here.
[Q] Could you share which Fold increase in potency compared to 6C7H5 value was measured for anti-CD33 antibody 6C7H51 (antibody, V domains shown, VH/VL only) VH: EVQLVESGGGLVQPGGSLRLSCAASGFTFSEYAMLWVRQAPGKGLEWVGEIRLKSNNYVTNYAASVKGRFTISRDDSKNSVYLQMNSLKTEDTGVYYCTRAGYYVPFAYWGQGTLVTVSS VL: QPVLTQSPSASASLGASVKLTCTLSSQHSTYTIEWYQQQPEKGPRYLMELKKEGSHSTGDGIPDRFSGSSSGAERYLTISSLQSEDEADYYCGVGVTIKEQFVYVFGGGTKLTVL ?
[A] 1
